Compiled pIC50 measurements on Poly [ADP-ribose] polymerase 1 (Homo sapiens) taken from the literature.
Sequence (P09874 whole entry): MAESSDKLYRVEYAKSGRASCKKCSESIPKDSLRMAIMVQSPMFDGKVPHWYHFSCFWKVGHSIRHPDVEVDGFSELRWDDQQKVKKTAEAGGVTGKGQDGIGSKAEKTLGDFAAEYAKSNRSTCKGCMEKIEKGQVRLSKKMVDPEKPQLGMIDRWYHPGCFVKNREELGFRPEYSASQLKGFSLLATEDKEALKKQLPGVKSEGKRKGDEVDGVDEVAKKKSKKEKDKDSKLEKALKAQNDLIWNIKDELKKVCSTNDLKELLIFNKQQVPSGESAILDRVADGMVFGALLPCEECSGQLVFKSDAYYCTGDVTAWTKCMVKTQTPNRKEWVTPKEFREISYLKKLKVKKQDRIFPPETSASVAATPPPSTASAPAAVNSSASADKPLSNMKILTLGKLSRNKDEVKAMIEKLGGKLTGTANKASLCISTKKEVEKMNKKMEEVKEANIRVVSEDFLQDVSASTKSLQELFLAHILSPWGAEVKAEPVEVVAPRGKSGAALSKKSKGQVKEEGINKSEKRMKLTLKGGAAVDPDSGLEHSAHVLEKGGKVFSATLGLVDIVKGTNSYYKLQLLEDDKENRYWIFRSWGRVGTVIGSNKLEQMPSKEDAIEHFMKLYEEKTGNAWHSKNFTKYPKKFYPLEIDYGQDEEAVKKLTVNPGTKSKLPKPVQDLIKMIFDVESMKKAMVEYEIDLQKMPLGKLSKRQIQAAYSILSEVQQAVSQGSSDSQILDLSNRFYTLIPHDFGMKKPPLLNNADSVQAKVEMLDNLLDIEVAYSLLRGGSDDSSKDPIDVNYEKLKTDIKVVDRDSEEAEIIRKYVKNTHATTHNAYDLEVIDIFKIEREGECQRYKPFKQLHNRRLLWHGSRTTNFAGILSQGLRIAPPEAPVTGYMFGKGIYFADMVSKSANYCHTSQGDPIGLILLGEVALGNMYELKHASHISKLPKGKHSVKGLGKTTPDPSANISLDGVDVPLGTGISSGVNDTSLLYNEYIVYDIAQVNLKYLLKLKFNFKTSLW
The meaning of pIC50 here: minus log10 of the concentration in molar units.

Cc1noc(C)c1-c1ccc2c(c1)C(c1ccccc1)N(CC(=O)NC(C)(C)c1nc3c(C(N)=O)cccc3[nH]1)C(=O)N2 (centres undefined) = 7.21
COc1cc(C(=O)N2CCCN(C(=O)c3cccc(Cc4n[nH]c(=O)c5ccccc45)c3)CC2)cc(Cl)n1 = 8.05
CCOC(=O)c1ccc(CCc2nc3cccc4c3n2CCNC4=O)cc1 = 7.01

Consider the record given below.
// pIC50 (Poly [ADP-ribose] polymerase 1 (Homo sapiens)) for "O=c1[nH]c2cc(-c3ccccc3)nn2c2ccccc12" = 7.00
